The measurements presented in this section are drawn from patent US20180016306A1.

# target-of-assay: aRSV-Fab (Fab fragment of anti-RSV monoclonal IgG Palivizumab, Synagis)
# protocol-text: affinity chromatography, peptide on aRSV-Fab-immobilised column, linear pH gradient 5.5 to 2.5, pH at elution peak top
parameter-measured: Dissociation pH

Previously resolved entries follow.
LB5t-Q15H.1d (designed binder) GPLGSEQVTIKENIYFEDGTVHTATFKGTFAEATAEAYRYADLLSKEHGKYTADLEDGGYTINIRFAG
3.9 pH
LB5t-T18H.1d (designed binder) GPLGSEQVTIKENIYFEDGTVQTAHFKGTFAEATAEAYRYADLLSKEHGKYTADLEDGGYTINIRFAG
3.9 pH
LB5t-T18D.1d (designed binder) GPLGSEQVTIKENIYFEDGTVQTADFKGTFAEATAEAYRYADLLSKEHGKYTADLEDGGYTINIRFAG
3.85 pH
LB5t-T16D.1d (designed binder) GPLGSEQVTIKENIYFEDGTVQDATFKGTFAEATAEAYRYADLLSKEHGKYTADLEDGGYTINIRFAG
3.6 pH
LB5t-T18Q.1d (designed binder) GPLGSEQVTIKENIYFEDGTVQTAQFKGTFAEATAEAYRYADLLSKEHGKYTADLEDGGYTINIRFAG
3.65 pH
LB5t-A17H.1d (designed binder) GPLGSEQVTIKENIYFEDGTVQTHTFKGTFAEATAEAYRYADLLSKEHGKYTADLEDGGYTINIRFAG
3.9 pH

Request: Give the reported value of Dissociation pH for this record: LB5t-T16H.1d (designed binder) GPLGSEQVTIKENIYFEDGTVQHATFKGTFAEATAEAYRYADLLSKEHGKYTADLEDGGYTINIRFAG
Result: 3.9 pH

Request: Input LB5t-T16A.1d (designed binder) GPLGSEQVTIKENIYFEDGTVQAATFKGTFAEATAEAYRYADLLSKEHGKYTADLEDGGYTINIRFAG , output reported Dissociation pH.
Result: 3.6 pH
